- tested_target: UniProt P00533
measured_endpoint: IC50 (µM)

structure_smiles_string | unit_annotation | result_number
C#Cc1cc(Nc2ncnc3cc(OCCOC)ccc23)cc(OCCOCC)c1 | µM | 77.2

---

- assay_notes: Metabolic stability in human liver microsomes
- Assay type: in vitro ADME
- reported_conditions: Human Liver Microsomes

structure_smiles_string | unit_annotation | half-life
C#Cc1cc(Nc2ncnc3cc(OCCOC)ccc23)cc(OCCOCC)c1 | min | 34.8

---

- assay_notes: Protein binding in rat plasma
- Format: in vitro ADME
- reported_conditions: read-out: % Bound (converted)
measured_endpoint: fraction unbound

structure_smiles_string | result_number
C#Cc1cc(Nc2ncnc3cc(OCCOC)ccc23)cc(OCCOCC)c1 | 0.0083

---

- System: MDA-MB-231 cells
- assay_notes: Proliferation of triple negative breast cancer MDA-MB-231 cells
- Assay type: cell-based
- reported_conditions: Homo sapiens, MDA-MB-231, read-out: IC50 on MDA-MB-231
pIC50: −log10 of the molar value.
measured_endpoint: pIC50

structure_smiles_string | result
C#Cc1cc(Nc2ncnc3cc(OCCOC)ccc23)cc(OCCOCC)c1 | ~6.72

---

- assay_notes: Metabolic stability in mouse liver microsomes
- Assay type: in vitro ADME
- reported_conditions: Mouse liver microsomes; read-out: CLint (μL/min/mg protein)
measured_endpoint: microsomal CLint (µL/min/mg)

structure_smiles_string | result_number
C#Cc1cc(Nc2ncnc3cc(OCCOC)ccc23)cc(OCCOCC)c1 | 39.2

---

- tested_target: UniProt P11712
- Sequence (P11712 whole entry): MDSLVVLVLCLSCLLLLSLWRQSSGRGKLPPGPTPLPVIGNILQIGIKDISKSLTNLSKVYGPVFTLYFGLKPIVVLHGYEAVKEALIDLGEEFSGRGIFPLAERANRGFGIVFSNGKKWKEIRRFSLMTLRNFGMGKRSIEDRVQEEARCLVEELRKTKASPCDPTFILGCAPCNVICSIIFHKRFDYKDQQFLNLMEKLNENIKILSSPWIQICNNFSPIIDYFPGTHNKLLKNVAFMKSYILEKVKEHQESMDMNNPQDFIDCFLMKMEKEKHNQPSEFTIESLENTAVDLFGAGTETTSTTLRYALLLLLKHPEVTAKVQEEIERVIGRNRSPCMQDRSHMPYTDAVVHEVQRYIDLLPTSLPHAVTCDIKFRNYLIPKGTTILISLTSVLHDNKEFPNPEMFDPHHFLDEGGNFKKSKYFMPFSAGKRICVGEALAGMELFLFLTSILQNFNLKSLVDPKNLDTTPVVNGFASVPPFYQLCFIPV
- assay_notes: CYP inhibition in human liver microsomes, 2C9
- Assay type: in vitro ADME

structure_smiles_string | IC50 (µM)
C#Cc1cc(Nc2ncnc3cc(OCCOC)ccc23)cc(OCCOCC)c1 | 13.8

---

- tested_target: CYP 1A2 (Homo sapiens (Human))
- Sequence (P05177 whole entry): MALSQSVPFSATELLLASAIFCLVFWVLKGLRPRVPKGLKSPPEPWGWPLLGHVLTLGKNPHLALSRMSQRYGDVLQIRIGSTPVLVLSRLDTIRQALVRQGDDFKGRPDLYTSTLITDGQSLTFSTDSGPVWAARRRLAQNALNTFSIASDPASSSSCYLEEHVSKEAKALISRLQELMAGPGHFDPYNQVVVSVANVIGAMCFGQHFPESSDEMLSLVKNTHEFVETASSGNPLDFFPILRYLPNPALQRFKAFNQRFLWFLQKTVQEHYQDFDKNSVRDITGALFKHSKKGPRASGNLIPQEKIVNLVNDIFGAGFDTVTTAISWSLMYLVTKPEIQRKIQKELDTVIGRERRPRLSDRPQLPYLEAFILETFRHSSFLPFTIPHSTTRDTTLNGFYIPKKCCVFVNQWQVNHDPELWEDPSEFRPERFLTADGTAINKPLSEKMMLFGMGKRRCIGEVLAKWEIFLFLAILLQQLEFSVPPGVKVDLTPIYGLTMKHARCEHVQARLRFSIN
- assay_notes: CYP inhibition in human liver microsomes, 1A2
- Type: in vitro ADME

compound | IC50 / µM
C#Cc1cc(Nc2ncnc3cc(OCCOC)ccc23)cc(OCCOCC)c1 [Compound 1] | 33.3

---

- tested_target: EGFR (Homo sapiens (Human), UniProt P00533)
- Sequence (P00533 25-1210): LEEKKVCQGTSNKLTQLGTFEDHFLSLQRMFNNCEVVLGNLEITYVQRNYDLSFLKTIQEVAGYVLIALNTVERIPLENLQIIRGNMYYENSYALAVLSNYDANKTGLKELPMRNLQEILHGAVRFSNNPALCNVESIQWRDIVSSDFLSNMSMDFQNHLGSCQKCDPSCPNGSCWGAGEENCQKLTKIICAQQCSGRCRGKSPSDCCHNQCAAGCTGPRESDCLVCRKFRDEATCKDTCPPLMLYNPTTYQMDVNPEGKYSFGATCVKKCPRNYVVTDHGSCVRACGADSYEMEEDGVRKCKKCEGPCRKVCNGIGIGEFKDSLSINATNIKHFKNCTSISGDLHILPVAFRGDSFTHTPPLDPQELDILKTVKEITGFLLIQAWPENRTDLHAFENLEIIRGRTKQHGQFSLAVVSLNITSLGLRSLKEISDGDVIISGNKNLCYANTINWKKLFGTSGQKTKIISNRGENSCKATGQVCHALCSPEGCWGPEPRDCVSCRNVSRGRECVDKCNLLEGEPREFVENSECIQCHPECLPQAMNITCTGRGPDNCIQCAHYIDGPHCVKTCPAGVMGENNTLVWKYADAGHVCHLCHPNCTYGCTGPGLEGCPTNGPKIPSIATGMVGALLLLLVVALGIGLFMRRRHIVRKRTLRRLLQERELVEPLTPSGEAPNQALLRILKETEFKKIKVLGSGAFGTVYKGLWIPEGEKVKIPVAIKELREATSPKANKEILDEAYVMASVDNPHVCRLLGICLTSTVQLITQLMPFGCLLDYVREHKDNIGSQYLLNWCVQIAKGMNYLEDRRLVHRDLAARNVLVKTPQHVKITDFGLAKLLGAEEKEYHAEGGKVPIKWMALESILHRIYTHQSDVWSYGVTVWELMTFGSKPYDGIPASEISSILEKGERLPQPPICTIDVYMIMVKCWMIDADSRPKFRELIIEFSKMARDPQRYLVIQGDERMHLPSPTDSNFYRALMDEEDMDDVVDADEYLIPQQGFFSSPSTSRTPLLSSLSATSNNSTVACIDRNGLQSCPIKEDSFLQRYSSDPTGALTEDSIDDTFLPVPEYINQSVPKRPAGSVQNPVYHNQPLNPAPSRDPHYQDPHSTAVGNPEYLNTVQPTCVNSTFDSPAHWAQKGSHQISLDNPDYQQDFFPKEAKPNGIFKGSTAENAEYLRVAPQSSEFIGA
- assay_notes: EGFR binding affinity, Nanotemper
- reported_conditions: Nanotemper (Table 1); read-out: KD to EGFR
measured_endpoint: Kd

structure_smiles_string | measured_endpoint | result
C#Cc1cc(Nc2ncnc3cc(OCCOC)c(OCCOC)cc23)cc(OCCOCC)c1 | Kd | ~8.84 µM

---

- assay_notes: Solubility in PBS at pH 7.4
- Assay type: physicochemical
- reported_conditions: aqueous buffer
measured_endpoint: solubility (µM)

compound | measured_endpoint | unit_annotation | result_number
C#Cc1cc(Nc2ncnc3cc(OCCOC)ccc23)cc(OCCOCC)c1 | solubility | µM | 7.96
CC(=O)[C@H]1CC[C@H]2[C@@H]3CCC4=CC(=O)CC[C@]4(C)[C@H]3CC[C@]12C [Progesterone, reference compound] | solubility | µM | 13.9

---

- assay_notes: Metabolic stability in mouse liver microsomes
- Assay type: in vitro ADME
- reported_conditions: Mouse liver microsomes
measured_endpoint: half-life (min)

structure_smiles_string | result_number
C#Cc1cc(Nc2ncnc3cc(OCCOC)ccc23)cc(OCCOCC)c1 | 35.4

---

- assay_notes: Permeability in Caco2 cell line
- Assay type: in vitro ADME
- reported_conditions: human, Caco-2; Caco2, A-B
Listed here are molecules together with their documented Papp A→B.
measured_endpoint: Papp A→B (×10⁻⁶ cm/s)

molecule | measured_endpoint | unit_annotation | result_number
C#Cc1cc(Nc2ncnc3cc(OCCOC)ccc23)cc(OCCOCC)c1 [Compound 1] | Papp A→B | ×10⁻⁶ cm/s | 15.4
CC(C)NCC(O)COc1cccc2ccccc12 (stereo not drawn) [Propranolol] | Papp A→B | ×10⁻⁶ cm/s | 19.5
C[C@H]1O[C@@H](O[C@H]2[C@@H](O)C[C@H](O[C@H]3[C@@H](O)C[C@H](O[C@H]4CC[C@@]5(C)[C@H](CC[C@@H]6[C@@H]5C[C@@H](O)[C@]5(C)[C@@H](C7=CC(=O)OC7)CC[C@]65O)C4)O[C@@H]3C)O[C@@H]2C)C[C@H](O)[C@@H]1O [Digoxin] | Papp A→B | ×10⁻⁶ cm/s | 0.61
